molecular target: human CTLA-4 (Y166G and Y183G) expressed on CHO-K1.hCTLA-4 cells (human, UniProt P16410 36-223); assay: CELISA on CHO-K1.hCTLA-4 cells
Sequence (P16410 36-223 Y201G/Y218G limits assumed): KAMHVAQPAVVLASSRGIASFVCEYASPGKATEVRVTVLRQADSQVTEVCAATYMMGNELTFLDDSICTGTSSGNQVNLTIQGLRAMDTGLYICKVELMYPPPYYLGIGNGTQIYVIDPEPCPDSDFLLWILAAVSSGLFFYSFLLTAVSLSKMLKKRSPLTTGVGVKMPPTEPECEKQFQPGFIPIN
ENDPOINT: EC50
Please make sure the unit comes right after the number.

* hCTLA4.27H1L5 (antibody, human IgG4 S228P, kappa, V domains shown, Humanized, human IgG4 (S228P) kappa; H1 read as hCTLA4.27VH1, L5 as hCTLA4.27VL5) VH: EVQLLQSGAVLARPGTSVKISCKASGYSFTTYWMNWVKQRPGQGLEWIGMIHPSDSETSLNQAFKDKAKLTAATSASIAYLEFSSLTNEDSAVYYCARMGRRNPYYFDYWGQGTLVTVSS VL: DIQMTQAPSSLSASVGDRVTITCRPSENLYTNLAWYQQKPGKAPKLLLYGATNLADGVPSRFSGSGSGTDYTLTISSLQAEDFATYYCQHLWGTPFTFGGGTKLEIKR | 0.046 nM

Then there is this binder:
Quick one: EC50 of hCTLA4.27H2L1 (antibody, human IgG4 S228P, kappa, V domains shown, Humanized, human IgG4 (S228P) kappa; H2 read as hCTLA4.27VH2, L1 as hCTLA4.27VL1) VH: EVQLVQSGAVLVKPGASVKVSCKASGYSFTTYWMNWVRQRPGKGLEWIGMIHPSDSETSLNQAFKDKVTITADESTSTAYMQLSSLRSEDTAVYYCARMGRRNPYYFDYWGQGTTVTVSS VL: DIQMTQSPSSLSASVGDRVTITCRPSENLYTNLAWYQQKPGKAPKLLLYGATNLADGVPSRFSGSGSGTDYTLTISSLQPEDFATYYCQHLWGTPFTFGQGTKLEIKR ?
0.042 nM
